- TESTED_SYSTEM: mutant cKIT (560-576 and V654A) in GIST430/654 cell line (Homo sapiens (Human), UniProt P10721, DEL560-576/V654A)
- Sequence (P10721 other isoform, or with tags, fused parts or gaps V654A/del 1-25/del 560-576 limits assumed): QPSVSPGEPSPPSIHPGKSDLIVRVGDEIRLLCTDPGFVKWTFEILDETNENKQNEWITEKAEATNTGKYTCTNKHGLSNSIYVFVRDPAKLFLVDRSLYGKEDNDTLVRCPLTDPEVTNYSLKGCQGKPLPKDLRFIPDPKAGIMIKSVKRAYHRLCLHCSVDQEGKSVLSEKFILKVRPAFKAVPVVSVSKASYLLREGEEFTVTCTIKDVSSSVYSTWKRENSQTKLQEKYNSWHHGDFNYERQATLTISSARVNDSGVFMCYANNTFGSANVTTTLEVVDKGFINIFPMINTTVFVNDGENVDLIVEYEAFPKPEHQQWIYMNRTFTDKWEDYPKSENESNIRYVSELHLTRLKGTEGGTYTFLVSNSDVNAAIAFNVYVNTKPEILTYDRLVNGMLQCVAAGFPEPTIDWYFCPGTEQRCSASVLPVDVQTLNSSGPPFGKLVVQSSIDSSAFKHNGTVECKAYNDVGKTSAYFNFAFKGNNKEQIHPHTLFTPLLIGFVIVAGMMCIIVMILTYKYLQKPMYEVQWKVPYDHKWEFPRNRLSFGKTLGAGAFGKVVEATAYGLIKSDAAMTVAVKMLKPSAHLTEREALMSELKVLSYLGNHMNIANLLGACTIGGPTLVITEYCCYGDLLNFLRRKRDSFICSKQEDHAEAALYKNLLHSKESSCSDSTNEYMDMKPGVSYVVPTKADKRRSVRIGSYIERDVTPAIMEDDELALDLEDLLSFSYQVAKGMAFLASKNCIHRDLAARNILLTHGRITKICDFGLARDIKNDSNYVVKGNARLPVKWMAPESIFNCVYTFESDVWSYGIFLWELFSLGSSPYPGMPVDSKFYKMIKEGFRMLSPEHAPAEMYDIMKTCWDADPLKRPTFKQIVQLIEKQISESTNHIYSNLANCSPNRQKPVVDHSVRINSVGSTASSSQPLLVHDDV
- EXPERIMENTAL_DETAILS: Cellular testing of cKIT mutant inhibitors: phospho-Y307-cKIT Luminex assay in GIST430/654 cells
- Type: cell-based
- MEASUREMENT_CONTEXT: Table 1; cKIT autophosphorylation, compounds 45 min; read-out: GIST 430/654 IC50
We begin with a simple list: items and their reported log10 IC50.
Note: values are log10 of IC50 expressed in nM.

# count of solved cases: 3
COCCOc1cc2[nH]nc(-c3cc(-c4ccc(OCCN5CCN(C)CC5)cc4)no3)c2cc1F :: 2.11
COCCOc1cc2[nH]nc(-c3cc(-c4ccc(C(=O)N5CC(c6cnn(C)c6)C5)cc4)no3)c2cc1F :: 1.67
COCCNC(=O)c1ccc2c(-c3cc(-c4ccc(C(=O)N(C)C)cc4)no3)n[nH]c2c1 :: 3.76

Pending molecule:
Please fill in: log10 IC50 reported for `COCCOc1cc2[nH]nc(-c3cc(-c4ccc(C(=O)N5CCN(C(CO)CO)CC5)cc4)no3)c2cc1F` = 2.67

---

- TESTED_SYSTEM: c-Kit(V654A) (Homo sapiens, UniProt P10721, V654A)
- EXPERIMENTAL_DETAILS: c-Kit(V654A) assay
- Type: biochemical
- MEASUREMENT_CONTEXT: Table 1; 200 μM ATP
API: label(entry) gives 1 if the entry's IC50 is strictly smaller than 2 nM; on equality or larger values it gives 0.

Use these answered entries as a reference point.
COCCOc1cc2[nH]nc(-c3cc(-c4ccc(N5CCOCC5=O)cc4)no3)c2cc1F :: 1
COCCOc1cc2[nH]nc(-c3cc(-c4ccc(C(=O)N5CC[C@H]5C(C)(C)O)cc4)no3)c2cc1F :: 1
COCCOc1cc2[nH]nc(-c3cc(-c4ccc(C(=O)N5CC(C)(O)C5)cc4)no3)c2cc1F :: 1

Task: # check: IC50 < 2 nM for `COCCOc1cc2[nH]nc(-c3cc(-c4ccc(C(=O)N5CC[C@H]5CO)cc4)no3)c2cc1F`
Output: 1

---

- TESTED_SYSTEM: c-Kit(V654A) (Homo sapiens, UniProt P10721, V654A)
- EXPERIMENTAL_DETAILS: c-Kit(V654A) assay
- Format: biochemical
- MEASUREMENT_CONTEXT: Table 2, corresponding triazole derivatives
pIC50: −log10 of the molar value.
Short version: pIC50 at least 8 is fulfilled, less is not fulfilled.

Use these answered entries as a reference point.
COCCOc1cc2[nH]nc(-c3cn(-c4ccc(C(=O)N5CC(N6CCOCC6)C5)c(F)c4)nn3)c2cc1F [reference compound] :: not fulfilled
COCCOc1cc2[nH]nc(-c3cn(-c4ccc(C(=O)N5C[C@H]6COC[C@H]6C5)cc4)nn3)c2cc1F [reference compound] :: fulfilled
COCCOc1cc2[nH]nc(-c3cn(-c4ccc(C(=O)N5CC(c6ccncc6)C5)cc4)nn3)c2cc1F [reference compound] :: fulfilled

Task: In plain terms: is recorded pIC50 at least 8 for COCCOc1cc2[nH]nc(-c3cn(-c4ccc(C5CCNCC5(C)C)cc4)nn3)c2cc1F (stereo not shown) [reference compound] ?
Output: not fulfilled
